- test.target: T1, human BAG2 protein (human, UniProt O95816 2-211)
- T1 construct: also called BAG2 polypeptide; Bcl-2-associated athanogene 2
- T1 sequence (O95816 2-211 limits assumed): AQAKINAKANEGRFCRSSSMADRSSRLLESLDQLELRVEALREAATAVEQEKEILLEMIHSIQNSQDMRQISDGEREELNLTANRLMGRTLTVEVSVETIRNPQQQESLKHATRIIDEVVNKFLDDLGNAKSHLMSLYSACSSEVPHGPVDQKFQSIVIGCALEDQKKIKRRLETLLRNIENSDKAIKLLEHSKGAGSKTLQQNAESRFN
- assay.overview: Western blot on MDA-MB-231 cell lysate
metric: binding result

| binder | binding result |
| --- | --- |
| 8C4 antibody (antibody, V domains shown, Mouse monoclonal antibody from a hybridoma; also called 8G4 (as misprinted); anti-BAG2 antibody 8C4) VH: QVQLQQPGAELVRPGASVTLSCKASGYTFTDYEMHWVKQTPVHGLEWIGIIDPETAGTAYNQKFKGKATLTADKSSSTAYMELRSLTSEDSAVYYCTRGKFYYSGRDYAMDYWGQGTSVTVSS VL: DVLMTQTPLSLPVSLGDQASISCRSSQSIVHSNGNTYLEWYLQKPGQSPKLLFYKVSNRFSGVPDRFSGSGSGTDFTLKISRVEAEDLGVYFCFQGSQVPPTFGGGTKLEIK | binds |
| 9B12 antibody (antibody, V domains shown, Mouse monoclonal antibody from a hybridoma; Capture antibody in the sandwich ELISA; also called anti-BAG2 antibody 9B12) VH: QVQLQQSGAELVRPGTSVKVSCKASGYAFTNYMIEWIKQRPGQGLEWIGVINPGSGGSYYNEKVKGKATLTADRSSSTAYMQFSSLTADDSGVYFCRIYGNYKGYFDHWGQGTTLTVSS VL: DIVMTQSPSSMYASLGERVTITCKASQDMNSYLSWFQQKPGKSPKTLIYRANRLVDGVPSRFSGSGSGQDYSLTISSLEYEDMGIYYCLQNDEFPFTFGSGTKLEMK | binds |
| 9B3 antibody (antibody, V domains shown, Mouse monoclonal antibody from a hybridoma; also called anti-BAG2 antibody 9B3) VH: EVQLQQSGAELVRPGTSVKVSCKASGYAFTNYMIEWIKQRPGQGLEWIGVINPGSGGSYYNEKVKGKATLTADKSSSTAYMQFSSLTADDSAVYFCRIYGNYKGYFDYWGQGTTLTVSS VL: DIVMTQSPSSMYASLGERVTITCKASQDINSYLSWFQQKPGKSPKTLIYRANRLVDGVPSRFSGSGSGQDYSLTISSLEYEDMGIYYCLQNDEFPFTFGSGTKLEIK | binds |
| 3B5 antibody (antibody, V domains shown, Mouse monoclonal antibody from a hybridoma; also called anti-BAG2 antibody 3B5) VH: EVQLQQSGPELVKPGASVKLSCKASGYSFTDYTFYWVRQSHGESLEWIGYIDPYNGGNTYNRKFKGKATLTVDKSSSTAFMHLNSLTSEDSAVYYCARGYYRYGGGGDFDYWGQGTTLTVSS VL: DVLMTQTPLSLPVSLGDQASISCRSSQSLVHSNGNTYLHWYLQKPGQSPKLLIHKVSNRFSGVPDRFSGSGSGTDFTLKISRVEAEDLGIYFCSQNTHIPPTFAGGTKLEIK | binds |
| 3G8 antibody (antibody, V domains shown, Mouse monoclonal antibody from a hybridoma; also called 3 GB (as misprinted); anti-BAG2 antibody 3G8) VH: QIQLVQSGPELKKPGETVKISCKASGYSFTKYGMNWVKQAPGKDIKWMGWINTNTGEATYGEEVKGRFAFSLETSASTAYLQINNLKNEDTATYFCARLGLRYLDYWGQGTTLTVSS VL: DIVMTQSPASLVVSLGQRATISCRASKSVSTSDYSYMHWYQQKPGQPPKVLIYLASNLESGVPARFSGSGSGTDFTLNIHPVEEEDAATYYCQHNRELPPTFGAGTKLELK | binds |
| 4C2 antibody (antibody, V domains shown, Mouse monoclonal antibody from a hybridoma; also called anti-BAG2 antibody 4C2) VH: QVQLQQPGAELVRPGASVTLSCKASGYTFTDYEMHWVKQTPVHGLEWIGIIDPETGATAYNQKFKGKATLTADKSSSTAYMELRSLTSEDSAVYYCTRGKFYYSGRDYAMDYWGQGTSVTVSS VL: DVLMTQTPLSLPVSLGDQASISCRSSQSIVHSNGNTYLEWYLQKPGQSPKLLFYKVSNRFSGVPDRFSGSGSGTDFTLKISRVEAEDLGVYFCFQGSQVPPTFGGGTKLEIK | binds |

Consider the additional binder presented here.
For the binder 3B10 antibody (antibody, V domains shown, Mouse monoclonal antibody from a hybridoma; also called anti-BAG2 antibody 3B10) VH: QVQLQQPGAELARPGTSVKVSCKASGHAFTNYMIEWIKQRPGQGLEWIGVINPGSGGTYYSEKVKGKATLTADRSSSTAYMQLSSLTADDSGVYFCRIYGNYKGYFDHWGQGTTLTVSS VL: DIVMTQSPSSMYASLGERVTITCKASQDMNSYLSWFQQKPGKSPKTLIYRSNRLVDGVPSRFSGSGSGQDYSLTISSLDYEDMGIYYCLQNDEFPFTFGSGTKLEIK , report binding result. binds
